- TESTED_SYSTEM: T1, human TIM3, full length, on cells (human, UniProt Q8TDQ0 22-301)
- T1 construct: CHO-K1 cells were transfected with a plasmid for full-length human Tim3; other cells carry endogenous TIM3; also called huTIM-3; CHO-Tim3
- ASSAY_SUMMARY: FACS, human CD14+ monocytes, donor1, 10 µg/ml
MEASUREMENT_KIND: Specific Binding [MFI] (MFI)
Give the value in MFI but do not write MFI after it.

Fill in: Specific Binding [MFI] of anti-TIM3 antibody Tim3_0016 (antibody, V domains shown, Mouse monoclonal from hybridoma; also called clone 0016; Tim3_0016-A488) VH: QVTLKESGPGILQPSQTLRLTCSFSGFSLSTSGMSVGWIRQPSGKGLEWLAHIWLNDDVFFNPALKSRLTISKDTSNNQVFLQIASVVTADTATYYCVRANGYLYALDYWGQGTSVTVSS VL: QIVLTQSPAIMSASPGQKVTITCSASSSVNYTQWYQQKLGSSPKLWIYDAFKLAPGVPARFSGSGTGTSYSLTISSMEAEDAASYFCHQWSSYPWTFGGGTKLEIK is ___ 2120

These measurements were taken from patent US20180072804A1.
